- System: Staphylococcus aureus
- PROCEDURE DETAILS: Acute lethal mouse model, intraperitoneal Staphylococcus aureus infection
- Format: in vivo
- CONDITION: 168 h, oral, mice dosed 1 h and 4 h post-infection, survival at day 7, read-out: ED50, Oral Administration
PARAMETER: ED50 (mg/kg)
Give the quantity in mg/kg, number only.

MOLECULE	UNIT TEXT	ED50
CC(=O)NCC1CN(c2ccc3c(c2)CCC3)C(=O)O1 (single isomer, unassigned)	mg/kg	2.2

// ED50 lookup, molecule = CC(=O)NCC1CN(c2ccc3c(c2)CCC3=NN2CCN(C)CC2)C(=O)O1 (single isomer, unassigned) , result: 13.9

Entry CC(=O)NCC1CN(c2ccc3c(c2)CCC3O)C(=O)O1 (single isomer, unassigned) , ED50 reported as 1.9

What the record says about CC(=O)NCC1CN(c2ccc3c(c2)CCC3=O)C(=O)O1 (single isomer, unassigned) : ED50 is 1.6

====

Catalogue of ED50 values
- Tested on: Staphylococcus aureus
- PROCEDURE DETAILS: Acute lethal mouse model, intraperitoneal Staphylococcus aureus infection
- Format: in vivo
- CONDITION: sc, 168 h, subcutaneous, mice dosed 1 h and 4 h post-infection, survival at day 7, read-out: ED50, Subcutaneous Administration
Dear colleague, please return just the value in mg/kg, with no unit written.

Recorded results for 3 compounds are shown here.
COMPOUND	NUMERIC READOUT
CC(=O)NCC1CN(c2ccc3c(c2)CCC3=O)C(=O)O1 (single isomer, unassigned)	1.2
CC(=O)NCC1CN(c2ccc3c(c2)CCC3=NN2CCN(C)CC2)C(=O)O1 (single isomer, unassigned)	20.3
CC(=O)NCC1CN(c2ccc3c(c2)CCC3)C(=O)O1 (single isomer, unassigned)	1.7

According to the records, this compound CC(=O)NCC1CN(c2ccc3c(c2)CCC3O)C(=O)O1 (single isomer, unassigned) displays ED50 of 1.8
